Measured pIC50 values are reported for all entries that follow.
assay: Antiproliferative activity against human Bel7402 cells after 72 hrs MTT assay; type: functional, cell-based; conditions: Bel-7402, 72 h
Please treat pIC50 as minus the base-10 logarithm of the molar concentration.

Example entries and their recorded answers appear below.
Entry C=C(C)[C@@H]1CC[C@]2(C(=O)O)CC[C@]3(C)[C@H](CC[C@@H]4[C@@]5(C)CCC(=O)[C@@](C)(COC(C)=O)[C@@H]5CC[C@]43C)[C@@H]12 : reported pIC50 = ?
4.53

So what does the record say about pIC50 for C=CCOC(=O)[C@]12CC[C@@H](C(=C)C)[C@@H]1[C@H]1CC[C@@H]3[C@@]4(C)CCC(=O)[C@@](C)(CO)[C@@H]4CC[C@@]3(C)[C@]1(C)CC2 ?
4.72

***
What value of pIC50 has been recorded for this entry: COc1cccc2c1C(=O)c1c(O)c3c(c(O)c1C2=O)C[C@@](O)(C(=O)CO)C[C@@H]3O[C@H]1C[C@H](N)[C@H](O)[C@H](C)O1
6.66

---

test system: B16; assay: Antiproliferative activity against mouse B16 cells after 72 hrs MTT assay; assay type: functional, cell-based; details: B16, 72 h
Property: pIC50; scope: individual molecules
Remember the convention: pIC50 equals -log10 of concentration in molar.

Recall the recorded pIC50 for C=C(C)[C@@H]1CC[C@]2(C(=O)O)CC[C@]3(C)[C@H](CC[C@@H]4[C@@]5(C)CC/C(=N\O)[C@@](C)(CO)[C@@H]5CC[C@]43C)[C@@H]12 with B16 and state it.
4.62

Find pIC50 (B16) for the entry C=C(C)[C@@H]1CC[C@]2(C(=O)O)CC[C@]3(C)[C@H](CC[C@@H]4[C@@]5(C)C[C@H](COC(C)=O)[C@H](OC(C)=O)[C@@](C)(COC(C)=O)[C@@H]5CC[C@]43C)[C@@H]12
4.41

Lab request: please report pIC50 under test system B16 for C=C(C)[C@@H]1CC[C@]2(C(=O)O)CC[C@]3(C)[C@H](CC[C@@H]4[C@@]5(C)CCC(=O)[C@@](C)(CO)[C@@H]5CC[C@]43C)[C@@H]12
4.69

Request - read-out pIC50 | tested on B16 | molecule C=C(C)[C@@H]1CC[C@]2(C(=O)O)CC[C@]3(C)[C@H](CC[C@@H]4[C@@]5(C)C=C(O)C(=O)[C@@](C)(CO)[C@@H]5CC[C@]43C)[C@@H]12
4.95

Form field - read-out: pIC50; system: B16; submitted item: C=CCOC(=O)[C@]12CC[C@@H](C(=C)C)[C@@H]1[C@H]1CC[C@@H]3[C@@]4(C)CC/C(=N\O)[C@@](C)(CO)[C@@H]4CC[C@@]3(C)[C@]1(C)CC2
4.88

API: value(readout=pIC50, system=B16) for record C=C(C)[C@@H]1CC[C@]2(C(=O)OCc3ccccc3)CC[C@]3(C)[C@H](CC[C@@H]4[C@@]5(C)C[C@H](O)[C@H](O)[C@@](C)(CO)[C@@H]5CC[C@]43C)[C@@H]12
4.58

Notebook: pull reported pIC50 for B16, entry C=C(C)[C@@H]1CC[C@]2(C(=O)OCC)CC[C@]3(C)[C@H](CC[C@@H]4[C@@]5(C)CCC(=O)[C@@](C)(CO)[C@@H]5CC[C@]43C)[C@@H]12
4.71

This collection of values is drawn from ChEMBL document CHEMBL3351759.
